Value source: patent US20180148504A1

- ASSAY SYSTEM: T1, recombinant purified FRα (ECL assay calibrator) (human, UniProt P15328 25-234)
- T1 construct: Calibrator of the ECL sandwich assays; also called FRα calibrator; FRα standard
- T1 sequence (P15328 25-234 limits assumed): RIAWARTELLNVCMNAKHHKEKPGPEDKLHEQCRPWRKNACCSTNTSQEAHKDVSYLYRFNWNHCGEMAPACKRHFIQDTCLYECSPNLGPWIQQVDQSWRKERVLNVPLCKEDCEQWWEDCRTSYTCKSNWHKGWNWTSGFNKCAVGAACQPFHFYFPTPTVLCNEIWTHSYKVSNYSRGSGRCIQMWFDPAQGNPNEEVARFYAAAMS
- PROCEDURE TEXT: ECL sandwich on FRα, signal to background; capture 1D2.G8.G10; binder = detection Ab
Measured Average of S/B, listed per entry for reference.
# print the numeric value only

Monoclonal antibody 1C6.E12.G8 (antibody, mouse IgG1, V domains shown, Murine IgG1 kappa from hybridoma; also called ATCC PTA-123091) VH: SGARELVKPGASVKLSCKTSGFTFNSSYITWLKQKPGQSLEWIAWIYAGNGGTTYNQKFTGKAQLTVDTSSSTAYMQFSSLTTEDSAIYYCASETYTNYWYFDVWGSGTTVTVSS VL: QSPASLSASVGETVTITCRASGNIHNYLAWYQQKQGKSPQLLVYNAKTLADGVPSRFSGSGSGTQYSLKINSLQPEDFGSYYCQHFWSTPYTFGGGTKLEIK	1
Monoclonal antibody 24H8.D3 (antibody, mouse IgG1, V domains shown, Biotin-conjugated when used as capture antibody in the ECL assay; also called ATCC PTA-123090) VH: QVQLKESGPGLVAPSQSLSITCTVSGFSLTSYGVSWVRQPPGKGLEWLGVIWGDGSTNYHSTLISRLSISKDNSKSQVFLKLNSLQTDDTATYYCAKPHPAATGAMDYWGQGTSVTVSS VL: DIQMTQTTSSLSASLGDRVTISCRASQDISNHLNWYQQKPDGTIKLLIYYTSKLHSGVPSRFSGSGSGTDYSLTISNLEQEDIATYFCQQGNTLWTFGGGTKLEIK	1
Monoclonal antibody 1A8.G11.E7 (antibody, mouse IgG1, V domains shown, Murine IgG1 kappa from hybridoma; also called ATCC PTA-123100) VH: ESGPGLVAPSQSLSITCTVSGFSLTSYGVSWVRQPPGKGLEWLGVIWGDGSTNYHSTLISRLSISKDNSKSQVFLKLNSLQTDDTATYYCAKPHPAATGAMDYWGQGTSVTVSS VL: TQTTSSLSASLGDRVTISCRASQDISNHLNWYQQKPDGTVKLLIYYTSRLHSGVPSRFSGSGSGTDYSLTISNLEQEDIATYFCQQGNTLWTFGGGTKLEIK	1
Monoclonal antibody 6A2.G7 (antibody, mouse IgG1, V domains shown, Murine IgG1 kappa from hybridoma; also called ATCC PTA-123093) VH: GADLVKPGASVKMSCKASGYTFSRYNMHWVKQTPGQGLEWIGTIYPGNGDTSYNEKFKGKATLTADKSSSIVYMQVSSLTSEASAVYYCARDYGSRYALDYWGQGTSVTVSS VL: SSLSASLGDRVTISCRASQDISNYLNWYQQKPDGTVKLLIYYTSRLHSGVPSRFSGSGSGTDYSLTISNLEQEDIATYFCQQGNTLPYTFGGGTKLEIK	5
Monoclonal antibody 19D4.B7 (antibody, mouse IgG2a, V domains shown, SULFO-TAG conjugated when used as detection antibody in the ECL assay; also called ATCC PTA-11884) VH: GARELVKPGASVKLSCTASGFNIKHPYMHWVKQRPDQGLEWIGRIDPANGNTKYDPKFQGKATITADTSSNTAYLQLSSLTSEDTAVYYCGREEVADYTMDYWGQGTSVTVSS VL: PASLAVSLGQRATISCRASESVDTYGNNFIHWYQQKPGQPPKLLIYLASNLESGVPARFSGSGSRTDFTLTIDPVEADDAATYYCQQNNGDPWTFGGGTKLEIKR	29

query: Given the binder Monoclonal antibody 26A9.C4 (antibody, mouse IgG1, V domains shown, Murine IgG1 kappa from hybridoma; also called ATCC PTA-123092) VH: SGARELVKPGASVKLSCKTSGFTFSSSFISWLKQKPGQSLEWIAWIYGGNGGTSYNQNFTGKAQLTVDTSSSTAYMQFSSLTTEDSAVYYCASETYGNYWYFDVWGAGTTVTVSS VL: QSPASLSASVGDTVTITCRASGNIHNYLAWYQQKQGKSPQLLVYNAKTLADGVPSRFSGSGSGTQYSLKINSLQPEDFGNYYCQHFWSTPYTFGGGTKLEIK , what is its reported Average of S/B?
result: 1

query: How about this binder: Monoclonal antibody 24H8.F3 (antibody, mouse IgG1, V domains shown, Murine IgG1 kappa from hybridoma; also called ATCC PTA-123097) VH: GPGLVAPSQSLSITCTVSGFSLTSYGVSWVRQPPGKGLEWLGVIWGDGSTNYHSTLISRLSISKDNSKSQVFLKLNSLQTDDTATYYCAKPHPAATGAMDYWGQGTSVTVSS VL: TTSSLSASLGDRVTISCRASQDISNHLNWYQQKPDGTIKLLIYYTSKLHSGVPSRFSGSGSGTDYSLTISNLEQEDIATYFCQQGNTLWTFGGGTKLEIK
result: 1

query: Another: Monoclonal antibody 1D2.D8.G10 (antibody, mouse IgG1, V domains shown, Murine IgG1 kappa from hybridoma; also called 1D2.D8.G0; ATCC PTA-123098) VH: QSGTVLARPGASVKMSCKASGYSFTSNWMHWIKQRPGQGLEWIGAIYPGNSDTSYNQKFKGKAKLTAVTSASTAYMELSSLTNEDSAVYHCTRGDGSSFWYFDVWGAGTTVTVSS VL: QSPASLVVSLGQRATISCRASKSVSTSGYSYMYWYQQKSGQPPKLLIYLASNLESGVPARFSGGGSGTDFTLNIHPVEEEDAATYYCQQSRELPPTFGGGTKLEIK
result: 1
